- test-protocol: DNDI: Cytotoxicity against L-6 rat myoblasts from skeletal muscle cells
- test-conditions: L6 rat skeletal muscle myoblast cells, IC50
Overview of reported IC50 across a group of compounds:

>  <compound>
CN(C)C(=O)N1CCN(C(c2ccc(Cl)cc2)c2cncnc2)CC1 (stereo not given)

>  <IC50>
> 100 µM

$$$$
>  <compound>
N#Cc1ccc(C(c2cccnc2)N2CCC(NC(=O)c3nccs3)CC2)cc1 (stereo not given)

>  <IC50>
> 100 µM

$$$$
>  <compound>
O=C(NC1CCN(C(c2ccc(C(F)(F)F)cc2)c2cnccn2)CC1)c1ccc(Cl)cc1 (stereo not given)

>  <IC50>
52.9 µM

$$$$
>  <compound>
O=S(=O)(Cc1ccccc1)N1CCN(C(c2ccc(Cl)cc2)c2cccnc2)CC1 (stereo not given)

>  <IC50>
57.7 µM

$$$$
>  <compound>
CC(C)CS(=O)(=O)NC(c1ccc(C(F)(F)F)cc1)c1cnccn1 (stereo not given)

>  <IC50>
> 100 µM

$$$$
>  <compound>
NC(=O)c1cccc(C(O)(c2cncnc2)c2ccc(Cl)cc2F)c1 (stereo not given)

>  <IC50>
> 100 µM

$$$$
>  <compound>
O=S(=O)(c1ccc(Cl)cc1)N1CCN(C(c2ccc(Cl)cc2)c2cncnc2)CC1 (stereo not given)

>  <IC50>
29 µM

$$$$
>  <compound>
CCS(=O)(=O)NC1CCN(C(c2ccc(C(F)(F)F)cc2)c2cnccn2)CC1 (stereo not given)

>  <IC50>
> 100 µM

$$$$
>  <compound>
OC(c1ccc(Cl)cc1)(c1cncnc1)c1cscn1 (stereo not given)

>  <IC50>
> 100 µM

$$$$
>  <compound>
CC(C)(C)NC(=O)N1CCC(NC(c2ccc(Cl)cc2)c2cccnc2)CC1 (stereo not given)

>  <IC50>
> 100 µM

$$$$
